Target: Phosphodiesterase 4 (Canis familiaris)
Experiment: Inhibition of canine lung Phosphodiesterase 4 (PDE4)

molecule | IC50 [µM]
COC(=O)c1c(-c2cc(OC)c(OC)c(OC)c2)c2ccc(OCc3ccccc3)cc2c(=O)n1-c1ccc(N)cc1.Cl | 6.1
COC(=O)c1c(-c2cc(OC)c(OC)c(OC)c2)c2ccc(OCc3ccncc3)cc2c(=O)n1-c1ccc(N)cc1.Cl.Cl | 7
COC(=O)c1c(-c2cc(OC)c(OC)c(OC)c2)c2ccc(OCc3cccnc3)cc2c(=O)n1-c1ccc(N)cc1.Cl.Cl | 3.6
COC(=O)c1c(-c2cc(OC)c(C)c(OC)c2)c2ccc(OCc3ccccn3)cc2c(=O)n1-c1ccc(N)cc1.Cl.Cl | 1.7
COC(=O)c1c(-c2cc(OC)c(Br)c(OC)c2)c2ccc(OCc3ccccn3)cc2c(=O)n1-c1ccc(N)cc1.Cl.Cl | 0.75
